Where do these numbers come from? They come from ChEMBL document CHEMBL1165950.

test system: MOLT-4; test: Growth inhibition of human MOLT4 cells after 48 hrs by sulforhodamine B assay; type: functional; details: MOLT-4, 48 h
measured-quantity: GI50 (nM)

chemical-structure: COc1cc(C)cc(-c2c(-c3ccnc(-c4ccc(C(C)=O)cc4)c3)cnn2CC#N)c1
result-value: 2630
//
chemical-structure: COc1cc(C)cc(-c2nn(CC#N)cc2-c2ccnc(-c3ccc(N(C)C)cc3)c2)c1
result-value: 626
//
chemical-structure: Cc1cc(O)cc(-c2nn(CC#N)cc2-c2ccnc(-c3ccc(N(C)C)cc3)c2)c1
result-value: 3170
//
chemical-structure: COc1cc(C)cc(-c2nn(CC#N)cc2-c2ccc(-c3cccc(C(C)=O)c3)nc2)c1
result-value: 3350
//
chemical-structure: COc1cc(C)cc(-c2c(-c3ccnc(-c4ccc(N(C)C)cc4)c3)cnn2CC#N)c1
result-value: 271
//
chemical-structure: Cc1cc(O)cc(-c2nn(CC#N)cc2-c2ccnc(-c3ccc(Oc4ccccc4)cc3)c2)c1
result-value: 2030
